Reference for the values: patent US9820943B2

# MEASUREMENT_PROTOCOL: Powder dissolution, USP/NF paddle method with HPLC analysis
# Type: physicochemical
# CONDITION_SUMMARY: 10 min; 500 mg in 900 mL water, 37 °C, 75 rpm; replicate #3; trihydrate
OUTCOME_MEASURE: Amoxicillin released in solution #3 (%)
Give bare numbers, in %.

For orientation, consider the following solved cases.
| COMPOUND | OUTCOME_MEASURE | UNIT_INFO | VALUE_OBSERVED |
| --- | --- | --- | --- |
| CC1(C)S[C@@H]2[C@H](NC(=O)[C@H](N)c3ccc(O)cc3)C(=O)N2[C@H]1C(=O)O.O.O.O [entry 5, amoxicillin trihydrate] | Amoxicillin released in solution #3 | % | 82.76 |
| CC1(C)S[C@@H]2[C@H](NC(=O)[C@H](N)c3ccc(O)cc3)C(=O)N2[C@H]1C(=O)O.O.O.O [entry 4, amoxicillin trihydrate] | Amoxicillin released in solution #3 | % | 87.34 |
| CC1(C)S[C@@H]2[C@H](NC(=O)[C@H](N)c3ccc(O)cc3)C(=O)N2[C@H]1C(=O)O.O.O.O [entry 2, amoxicillin trihydrate] | Amoxicillin released in solution #3 | % | 100.36 |
| CC1(C)S[C@@H]2[C@H](NC(=O)[C@H](N)c3ccc(O)cc3)C(=O)N2[C@H]1C(=O)O.O.O.O [entry 1, amoxicillin trihydrate] | Amoxicillin released in solution #3 | % | 99.73 |
| CC1(C)S[C@@H]2[C@H](NC(=O)[C@H](N)c3ccc(O)cc3)C(=O)N2[C@H]1C(=O)O.O.O.O [entry 3, amoxicillin trihydrate] | Amoxicillin released in solution #3 | % | 99.27 |

Incoming: # lookup: Amoxicillin released in solution #3 of CC1(C)S[C@@H]2[C@H](NC(=O)[C@H](N)c3ccc(O)cc3)C(=O)N2[C@H]1C(=O)O.O.O.O [entry 6, amoxicillin trihydrate]
Outgoing: 88.53

* * *

Please go through the items and note down their Amoxicillin released in solution #2.
# MEASUREMENT_PROTOCOL: Powder dissolution, USP/NF paddle method with HPLC analysis
# Format: physicochemical
# CONDITION_SUMMARY: 10 min; 500 mg in 900 mL water, 37 °C, 75 rpm; replicate #2; trihydrate
# Method: Dissolution analysis of amoxicillin trihydrate powder samples was carried out using the USP/NF paddle method at a rotational speed of 75 rpm. Ultrapure ELGA laboratory water (900 mL) was used as dissolution medium. Media were equilibrated to 37.0±0.5° C. prior to dissolution. […] Samples were collected at 0, 1, 3, 5, 10, 15, 30, 60 and 90 min, filtered through 0.2 μm filters and analyzed by HPLC. […]
Give bare numbers, in %.

For orientation, consider the following solved cases.
| MOLECULE | Amoxicillin released in solution #2 / % |
| --- | --- |
| CC1(C)S[C@@H]2[C@H](NC(=O)[C@H](N)c3ccc(O)cc3)C(=O)N2[C@H]1C(=O)O.O.O.O [entry 4, amoxicillin trihydrate] | 86.80 |
| CC1(C)S[C@@H]2[C@H](NC(=O)[C@H](N)c3ccc(O)cc3)C(=O)N2[C@H]1C(=O)O.O.O.O [entry 2, amoxicillin trihydrate] | 98.95 |

Incoming: # lookup: Amoxicillin released in solution #2 of CC1(C)S[C@@H]2[C@H](NC(=O)[C@H](N)c3ccc(O)cc3)C(=O)N2[C@H]1C(=O)O.O.O.O [entry 5, amoxicillin trihydrate]
Outgoing: 88.59
